Target: T1, full-length wild type recombinant human LCAT (human, UniProt P04180 25-440)
T1 construct: also called huLCAT; hLCAT
T1 sequence: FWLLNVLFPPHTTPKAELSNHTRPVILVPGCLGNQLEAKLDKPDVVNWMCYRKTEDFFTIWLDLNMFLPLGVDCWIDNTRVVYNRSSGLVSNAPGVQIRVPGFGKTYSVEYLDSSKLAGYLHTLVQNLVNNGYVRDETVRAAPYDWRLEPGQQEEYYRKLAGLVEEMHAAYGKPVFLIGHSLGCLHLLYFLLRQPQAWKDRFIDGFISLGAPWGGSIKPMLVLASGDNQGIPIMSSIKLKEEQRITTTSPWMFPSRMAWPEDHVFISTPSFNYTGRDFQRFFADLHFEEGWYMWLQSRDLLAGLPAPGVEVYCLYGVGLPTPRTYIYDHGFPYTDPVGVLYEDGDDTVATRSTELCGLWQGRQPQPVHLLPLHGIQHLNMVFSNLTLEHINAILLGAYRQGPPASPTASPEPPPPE
Assay: Binding Affinity (nM), Table 12; method not restated (BIAcore of Example 3 presumed)
Field: Kd. Provide a value for each of the binders that follow.
// return numeric value only (unit: nM, not printed)

**Query** In one line, give reported Kd of the entry 27C3(S42A, S131T, V135I, M136I/N107G) (antibody, human IgG2, lambda, V domains shown, IgG2 lambda; The mutations are already in the entries) VH: QVQLQESGPGLVKPSQTLSLTCTVSGASISSGGYNWAWIRQHPGKGLEWIGYIYYSGSTYYNPSLKSRVTISVDTSKNQFSLKLSSVTAADTAVYYCARERGYCSSTTCSRIIDVWGQGTTVTVSS VL: SSELTQDPAVSVALGQTVRITCQGDSLRSYYASWYQQKPGQAPVLVIYGKNNRPSGIPDRFSGSSSGNTASLTITGAQAEDEADYYCGSRDNIGNHQVFGGGTKLTVLG .
**Result** 2.8

**Query** Retrieve Kd measured for 27C3(S42A, S133T, M136I/N107G) (antibody, human IgG2, lambda, V domains shown, IgG2 lambda; The mutations are already in the entries) VH: QVQLQESGPGLVKPSQTLSLTCTVSGASISSGGYNWAWIRQHPGKGLEWIGYIYYSGSTYYNPSLKSRVTISVDTSKNQFSLKLSSVTAADTAVYYCARERGYCSSTSCTRVIDVWGQGTTVTVSS VL: SSELTQDPAVSVALGQTVRITCQGDSLRSYYASWYQQKPGQAPVLVIYGKNNRPSGIPDRFSGSSSGNTASLTITGAQAEDEADYYCGSRDNIGNHQVFGGGTKLTVLG and print it.
**Result** 0.4

**Query** Tell us which Kd value is on record for 27C3(S42A, S131T, V135I, M136I/N107G, I112V) (antibody, human IgG2, lambda, V domains shown, IgG2 lambda; The mutations are already in the entries) VH: QVQLQESGPGLVKPSQTLSLTCTVSGASISSGGYNWAWIRQHPGKGLEWIGYIYYSGSTYYNPSLKSRVTISVDTSKNQFSLKLSSVTAADTAVYYCARERGYCSSTTCSRIIDVWGQGTTVTVSS VL: SSELTQDPAVSVALGQTVRITCQGDSLRSYYASWYQQKPGQAPVLVIYGKNNRPSGIPDRFSGSSSGNTASLTITGAQAEDEADYYCGSRDNVGNHQVFGGGTKLTVLG
**Result** 34
